- MEASURED ON: Inadl_8, Q8NI35
- Sequence (Q8NI35 1425-1530): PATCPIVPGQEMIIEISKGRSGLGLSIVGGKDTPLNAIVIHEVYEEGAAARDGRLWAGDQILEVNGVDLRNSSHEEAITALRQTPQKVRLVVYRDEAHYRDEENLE
- PROTOCOL DESCRIPTION: holdup assay
- Parameters: key: below the threshold = too weak to quantify, mostly under pKd 3.1 to 4
- EXPERIMENTAL SETUP: plain residues with an end cap or a label only (N-terminal biotin on a linker: ado-ado)
ASSAY ENDPOINT: pKd

{"BINDER": "SGSLKLMTTV [DACT1, Q9NYF0]", "pKd": 4.09}
{"BINDER": "HLRARKSEWV [GJD4, Q96KN9]", "pKd": 3.59}
{"BINDER": "QPCFNKLFPL [LPXN, O60711]", "pKd": "below the threshold"}
{"BINDER": "GQEEQVTTRL [TRPC5, Q9UL62]", "pKd": "below the threshold"}
{"BINDER": "VDSTVKVWTC [TRAF7, Q6Q0C0]", "pKd": "below the threshold"}
{"BINDER": "QGPVETESVV [SLC45A4, Q5BKX6]", "pKd": 3.7}
{"BINDER": "QGLAERISVL [PRKD2, Q9BZL6]", "pKd": 3.8}
{"BINDER": "GNSVLKSTQF [SLC22A12, Q96S37]", "pKd": "below the threshold"}

Data request: Look at this binder and give its reported pKd. QSPANIYYKV [EFNB1, P52799]
Data returned: below the threshold

Data request: # pKd lookup, item YLEPVLSSEL [ATP2A2, P16615;P16615-3]
Data returned: below the threshold
